Recorded values, source patent US4190657A.

- experiment.notes: acute toxicity, 50 percent lethal dose (LD50), graphical method
- assay.conditions: mouse, in vivo; intravenous; Table III; read-out: TOXICITY intravenous
endpoint.name: LD50 (mg/kg)
# output: bare number, implied unit mg/kg

[ask] Quick check: LD50 of COC(=O)[C@@H]1CC(=O)n2c3c(c4ccccc42)CCN(C)[C@H]31 (relative stereo) [Compound 1 trans m.s.] ?
[reply] 47

* * *

- experiment.notes: acute toxicity, 50 percent lethal dose (LD50), graphical method
- Type: in vivo
- assay.conditions: mouse, in vivo, ip, mice CD 1, intraperitoneal; Table II; read-out: ACUTE TOXICITY LD50 for intraperitoneal administration
Documented LD50 across a set of compounds
Response body: numeric value in mg/kg, unit text excluded.

[ask] Request the reported LD50 associated with COC(=O)[C@@H]1CC(=O)n2c3c(c4ccccc42)CCN(C)[C@@H]31 (relative stereo) [1 (m.s.cis)]
[reply] 170

[ask] Param item: CC(O)CCN1CCc2c3n(c4ccccc24)C(=O)CCC31 (single isomer, unassigned) [35 (base, isomer A)]
[reply] 150

[ask] Same thing, different compound: CC(=O)CCN1CCc2c3n(c4ccccc24)C(=O)CCC31 (centres unmarked) [Compound 33]
[reply] 170

[ask] What do you get for CN1CCc2c3n(c4ccc(Cl)cc24)C(=O)CCC31 (centres unmarked) [Compound 53] ?
[reply] 150

[ask] Now try CCN1CCc2c3n(c4ccccc24)C(=O)CCC31 (centres unmarked) [Compound 3] .
[reply] 58

[ask] Input COc1ccc2c(c1)c1c3n2C(=O)CCC3N(C)CC1 (centres unmarked) [Compound 38]
[reply] 65

[ask] Query CC1CCC2c3c(c4ccccc4n31)CCN2C (centres unmarked) [Compound 10] next
[reply] 50

[ask] Same question for CCN1CCc2c3n(c4ccccc24)C(C)=CCC31 (centres unmarked) [Compound 26] please.
[reply] 67

[ask] Now try CCN1CCc2c3n(c4ccccc24)C(C)(O)CCC31 (centres unmarked) [Compound 21] .
[reply] 75

[ask] What about this compound? CCN1CCc2c3n(c4ccccc24)C(C)CCC31 (centres unmarked) [28 (m.s.)]
[reply] 40

[ask] One more compound: CN1CCc2c3n(c4ccccc24)C(=O)CCC31 (centres unmarked) [Compound 2 (base)]
[reply] 85
